# CB1 receptor Efficacy Emax listing for each entry below
assayed_system: human CB1 receptor (Homo sapiens)
Construct: host or cells: CHO-K1 stably expressing CB1, apoaequorin and Gα16
Sequence (P21554 whole entry): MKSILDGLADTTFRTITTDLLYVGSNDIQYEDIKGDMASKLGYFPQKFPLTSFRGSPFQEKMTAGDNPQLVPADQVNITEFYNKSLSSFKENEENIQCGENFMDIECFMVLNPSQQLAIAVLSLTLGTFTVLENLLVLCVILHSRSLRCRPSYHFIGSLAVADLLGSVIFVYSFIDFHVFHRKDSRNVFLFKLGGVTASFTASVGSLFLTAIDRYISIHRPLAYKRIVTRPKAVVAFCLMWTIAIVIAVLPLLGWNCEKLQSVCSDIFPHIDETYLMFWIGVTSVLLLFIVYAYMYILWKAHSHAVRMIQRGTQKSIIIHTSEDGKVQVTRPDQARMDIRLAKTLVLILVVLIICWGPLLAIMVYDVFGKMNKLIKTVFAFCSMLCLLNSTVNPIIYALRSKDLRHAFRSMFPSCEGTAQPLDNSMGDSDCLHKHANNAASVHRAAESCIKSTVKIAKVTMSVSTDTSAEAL
protocol_details: AequoScreen intracellular calcium release assay, CHO-K1 cells stably expressing CB1
Assay type: cell-based
test_parameters: normalized to maximum of JWH-018; n ≥ 3 (JWH-030 n = 2)
Could you give me the number in % JWH-018? Just the number is fine.

CC(C)[C@H](NC(=O)c1nn(Cc2ccc(F)cc2)c2ccccc12)C(N)=O
108
CC1(C)C(C(=O)c2cn(CCCCCF)c3ccccc23)C1(C)C
105
O=C(c1cccc2ccccc12)c1nn(CCCCCF)c2ccccc12
92.8

Supply CB1 receptor Efficacy Emax value. Item: `CCCCCn1cc(C(=O)c2ccc(CC)c3ccccc23)c2ccccc21` 110

Supply CB1 receptor Efficacy Emax value. Item: COC(=O)C(NC(=O)c1nn(CCCCCF)c2ccccc12)C(C)(C)C (stereo not drawn) 131

====

assayed_system: hERG (KV11.1) (Homo sapiens)
Sequence (Q12809 whole entry): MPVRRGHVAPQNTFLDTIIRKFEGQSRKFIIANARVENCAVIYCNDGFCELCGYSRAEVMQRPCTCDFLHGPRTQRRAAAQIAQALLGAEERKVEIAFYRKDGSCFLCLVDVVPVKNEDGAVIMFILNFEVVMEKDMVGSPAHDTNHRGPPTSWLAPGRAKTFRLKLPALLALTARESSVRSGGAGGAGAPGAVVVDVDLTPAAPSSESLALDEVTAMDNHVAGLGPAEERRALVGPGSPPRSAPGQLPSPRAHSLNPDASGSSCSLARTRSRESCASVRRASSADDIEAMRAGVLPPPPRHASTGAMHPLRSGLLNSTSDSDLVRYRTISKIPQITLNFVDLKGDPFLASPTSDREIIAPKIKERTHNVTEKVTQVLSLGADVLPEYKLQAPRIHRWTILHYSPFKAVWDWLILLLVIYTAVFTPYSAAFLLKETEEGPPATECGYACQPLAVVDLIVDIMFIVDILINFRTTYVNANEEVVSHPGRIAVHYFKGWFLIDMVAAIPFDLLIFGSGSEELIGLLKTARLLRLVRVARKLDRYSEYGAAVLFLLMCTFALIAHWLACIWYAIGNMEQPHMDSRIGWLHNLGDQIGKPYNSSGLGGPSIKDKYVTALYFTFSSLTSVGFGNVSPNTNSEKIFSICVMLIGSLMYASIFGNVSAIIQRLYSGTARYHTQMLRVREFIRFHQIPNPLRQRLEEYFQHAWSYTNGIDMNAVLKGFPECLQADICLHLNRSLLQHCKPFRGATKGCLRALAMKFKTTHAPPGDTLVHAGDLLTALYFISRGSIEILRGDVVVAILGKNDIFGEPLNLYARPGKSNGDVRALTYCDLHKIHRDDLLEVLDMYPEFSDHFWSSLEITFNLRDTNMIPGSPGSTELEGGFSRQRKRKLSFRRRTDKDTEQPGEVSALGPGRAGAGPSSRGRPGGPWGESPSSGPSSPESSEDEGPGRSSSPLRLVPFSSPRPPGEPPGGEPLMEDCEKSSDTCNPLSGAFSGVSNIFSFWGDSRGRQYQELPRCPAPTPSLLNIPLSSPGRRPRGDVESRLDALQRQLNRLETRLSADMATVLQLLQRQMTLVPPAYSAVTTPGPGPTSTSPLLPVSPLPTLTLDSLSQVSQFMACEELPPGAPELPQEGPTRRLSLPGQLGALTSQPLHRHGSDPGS
protocol_details: Automated planar patch-clamp (APC, QPatch II 48), voltage-ladder protocol, CHO cells stably expressing human hERG
test_parameters: read-out: hERG channel Potency IC50 (Gmax reduction); APC, 22 °C, best fit
yes (1) if IC50 is below 10 µM. no (0) if not; exact matches included in no (0).

Examples with answers:
COC(=O)[C@@H](NC(=O)c1cn(CC2CCCCC2)c2ccccc12)C(C)C [MMB-CHMICA]
yes (1)
CCCCCn1cc(C(=O)c2ccc(C)c3ccccc23)c2ccccc21 [JWH-122]
yes (1)
CC(C)(C)C(NC(=O)c1cn(CC2CCCCC2)c2ccccc12)C(N)=O (stereo not drawn) [ADB-CHMICA]
yes (1)
C=CCCCn1nc(C(=O)N[C@H](C(=O)OC)C(C)(C)C)c2ccccc21 [MDMB-4en-PINACA]
no (0)
CC(C)(C)[C@H](NC(=O)c1nn(CC2CCCCC2)c2ccccc12)C(N)=O
no (0)
CC(C)(C)[C@H](NC(=O)c1n[nH]c2ccc(Br)cc12)C(N)=O [ADB-5'Br-INACA]
no (0)
O=C(c1cccc2ccccc12)c1nn(CCCCCF)c2ccccc12 [THJ-2201]
yes (1)
CCCCn1nc(C(=O)NC(C(N)=O)C(C)(C)C)c2cc(Br)ccc21 (stereo not drawn) [ADB-5'Br-BUTINACA]
no (0)
CC(C)[C@H](NC(=O)c1nn(Cc2ccc(F)cc2)c2ccccc12)C(N)=O [AB-FUBINACA]
no (0)
N#CCCCCn1nc(C(=O)NCc2ccccc2)c2ccccc21 [Benzyl-4CN-BUTINACA]
no (0)

Would you kindly verify if IC50 of CC(C)(C)[C@H](NC(=O)c1nn(Cc2ccc(F)cc2)c2ccccc12)C(N)=O [ADB-FUBINACA] is strictly less than 10 µM? no (0)

Would you kindly verify if IC50 of COC(=O)[C@@H](NC(=O)c1cn(CCCCF)c2ccccc12)C(C)(C)C [4F-MDMB-BUTICA] is strictly less than 10 µM? no (0)

Would you kindly verify if IC50 of COC(=O)[C@@H](NC(=O)c1n[nH]c2ccc(Br)cc12)C(C)(C)C [MDMB-5'Br-INACA] is strictly less than 10 µM? no (0)

Would you kindly verify if IC50 of O=C(c1cccc2ccccc12)c1cn(CCCCCF)c2ccccc12 [AM-2201] is strictly less than 10 µM? yes (1)

Would you kindly verify if IC50 of C=CCCCn1nc(C(=O)NC(C(N)=O)C(C)(C)C)c2ccccc21 (stereo not drawn) [ADB-4en-PINACA] is strictly less than 10 µM? yes (1)

Would you kindly verify if IC50 of CC(C)[C@H](NC(=O)c1cn(CC2CCCCC2)c2ccccc12)C(N)=O [AB-CHMICA] is strictly less than 10 µM? yes (1)

Would you kindly verify if IC50 of `CC(C)[C@H](NC(=O)c1nn(CC2CCCCC2)c2ccccc12)C(N)=O` is strictly less than 10 µM? no (0)

Data provenance is paper PMC13586173.
